- targetEntity: Acetylpolyamine amidohydrolase (Mycoplana ramosa, UniProt Q48935)
- assay: Inhibition of Mycoplana ramosa APAH expressed in Escherichia coli BL21 (DE3) using BML-KI104 as substrate after 30 mins by fluorimetric assay
log10 of IC50 values, listed per item
Quick note: numbers are log10 of IC50, with µM as the unit.

Req: Which log10 of IC50 value is on record for `NCCCNCCCCCC(=O)C(F)(F)F` ?
Resp: -0.57

Req: Item `NCCCNCCCCCS` has what recorded log10 of IC50?
Resp: 1.41

Req: Which log10 of IC50 is listed for `NCCCNCCCCCC(=O)NO` ?
Resp: -0.41

###

- targetEntity: Acetylpolyamine amidohydrolase (Mycoplana ramosa)
- Sequence (Q48935 whole entry): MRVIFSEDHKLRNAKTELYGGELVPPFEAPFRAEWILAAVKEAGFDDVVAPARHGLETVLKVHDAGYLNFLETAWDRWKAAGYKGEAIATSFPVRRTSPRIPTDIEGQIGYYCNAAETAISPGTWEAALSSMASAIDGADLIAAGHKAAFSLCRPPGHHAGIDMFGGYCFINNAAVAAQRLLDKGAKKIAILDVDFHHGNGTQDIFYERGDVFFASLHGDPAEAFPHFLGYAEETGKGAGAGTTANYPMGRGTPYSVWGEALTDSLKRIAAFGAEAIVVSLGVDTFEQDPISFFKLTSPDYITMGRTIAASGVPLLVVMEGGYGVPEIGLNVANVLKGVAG
pIC50: −log10 of the molar value.
Label scheme for pIC50: lower than 3 is 0 (no), 3 and above is 1 (yes).

For orientation, consider the following solved cases.
Req: Could you verify whether the entry `CC(=O)SCCCCCNCCCN` shows pIC50 of no less than 3?
Resp: 0 (no)

Req: Does `CC(=O)SCC(=O)CCCCCNCCCN` have a reported pIC50 of at least 3?
Resp: 1 (yes)

Req: Determine whether this compound has pIC50 no lower than 3: `CC(=O)CCCCCNCCCN`
Resp: 1 (yes)

Req: Reported pIC50 at or above 3? `NCCCNCCCCCC(=O)O`
Resp: 0 (no)

Req: Evaluate `CS(=O)(=O)CCCCCNCCCN` : pIC50 at minimum 3?
Resp: 0 (no)

Next:
Req: Can `COCC(=O)CCCCCNCCCN` be said to have pIC50 at or above 3?
Resp: 1 (yes)

Req: Decide: is the reported value of pIC50 for `NCCCNCCCCCB(O)O` equal to or greater than 3?
Resp: 1 (yes)

// provenance: ChEMBL document CHEMBL2412983
